The reported measurements were obtained from ChEMBL document CHEMBL3272098.

Test system: L1210
Test: Antitumor activity against mouse L1210 cells allografted in po dosed BDF1 mouse administered 24 hrs post-implantation
Format: functional, organism-based
The source made the active and inactive calls. No cut-off for these calls is given here.

[
  {
    "molecule": "CCCCCCCCCCC(=O)OC[C@H]1O[C@@H]2[C@@H](Oc3nc(=N)ccn32)[C@@H]1OC(=O)CCCCCCCCCC.Cl",
    "test.system": "L1210",
    "Activity": "inactive"
  },
  {
    "molecule": "CC(=O)O[C@H]1[C@@H]2Oc3nc(=N)ccn3[C@@H]2O[C@@H]1COC(=O)C12CC3CC(CC(C3)C1)C2.Cl",
    "test.system": "L1210",
    "Activity": "inactive"
  },
  {
    "molecule": "CCCCCCCC/C=C\\CCCCCCCCCCCC(=O)OC[C@H]1O[C@@H]2[C@@H](Oc3nc(=N)ccn32)[C@@H]1OC(=O)CCCCCCCCCCC/C=C\\CCCCCCCC.Cl",
    "test.system": "L1210",
    "Activity": "inactive"
  },
  {
    "molecule": "CC(=O)O[C@H]1[C@@H]2Oc3nc(=N)ccn3[C@@H]2O[C@@H]1COC(=O)C(C)(C)C.Cl",
    "test.system": "L1210",
    "Activity": "inactive"
  }
]
